# Test system: SR leukemia
# assay.text: NCI-60 one-dose screen, 48 h
# condition.summary: 10 µM unless noted
About 83,000 compounds went through this panel and 20% of them were active in at least one assay; those are over-represented in the sample as a whole. Calls of active or inactive are those of the source. The calls were made as follows: active = growth percent below 10; inactive = the rest.
Outcomes: active, inactive

[
  {
    "compound": "O=C1NCCc2c1noc2-c1ccccc1",
    "category": "inactive"
  },
  {
    "compound": "Cc1ccccc1NC(=O)NC(CC(N)=O)c1ccc2c(c1)nc(-c1cccc(Oc3ccc(C(C)(C)C)cc3)c1)n2CCCN1CCCCC1C (stereo unspecified)",
    "category": "active"
  },
  {
    "compound": "Nc1nc(Nc2ccccc2SSc2ccccc2Nc2nc(N)nc(C(Cl)(Cl)Cl)n2)nc(C(Cl)(Cl)Cl)n1",
    "category": "inactive"
  },
  {
    "compound": "COc1c(Br)cc(C(c2cc(Br)c(OC)c(Br)c2)c2ccccc2C(=O)O)cc1Br",
    "category": "inactive"
  },
  {
    "compound": "Cc1ccc(C(=O)Cc2ccccc2)c(O)c1",
    "category": "inactive"
  },
  {
    "compound": "O=C(CNC(=O)c1cccc2ccccc12)Nc1ccccc1Oc1ccc(O)cc1",
    "category": "inactive"
  },
  {
    "compound": "Cc1ccc(-c2c3c(N)c4c(nc3nc3c2c(C)nn3-c2ccccc2)CCC4)cc1",
    "category": "active"
  },
  {
    "compound": "NS(=O)(=O)c1ccc(N2CC(c3nc4ccccc4[nH]3)CC2=O)cc1 (stereo unspecified)",
    "category": "inactive"
  },
  {
    "compound": "CCOC(CNCc1cc(C)c2[nH]c3ccccc3c2c1C)OCC",
    "category": "inactive"
  },
  {
    "compound": "Cc1ccc(/C=C/C(=O)c2ccc(F)cc2)s1",
    "category": "inactive"
  },
  {
    "compound": "NC(=O)NS(=O)(=O)c1ccc(N2N=C(C(F)(F)F)CC2c2cc(C(F)(F)F)cc(C(F)(F)F)c2)cc1 (stereo unspecified)",
    "category": "inactive"
  },
  {
    "compound": "CNCCCn1c2c(c3ccc(F)cc3c1=O)C(=O)c1cc(OC)cnc1-2",
    "category": "active"
  },
  {
    "compound": "COc1cc(/C(Cl)=C/C=C/C(=O)c2c(C)[n+]([O-])c3ccc(Cl)cc3[n+]2[O-])cc(OC)c1OC",
    "category": "active"
  },
  {
    "compound": "Cc1ccc(S(=O)(=O)NCCN2c3nc4ccccc4cc3Sc3cc4ccccc4nc32)cc1",
    "category": "inactive"
  },
  {
    "compound": "CCSc1ncc(Br)c(Sc2nc(N)nc3nc[nH]c23)n1",
    "category": "inactive"
  },
  {
    "compound": "CC(NC(N)=S)c1ccccc1 (stereo unspecified)",
    "category": "inactive"
  },
  {
    "compound": "O[N+]1=CC=CCC1=S.On1ccccc1=S.[Zn]",
    "category": "active"
  },
  {
    "compound": "COc1ccc(-c2nnc3c4[nH]cnc4ncn23)c(OC)c1",
    "category": "inactive"
  },
  {
    "compound": "CC12CCC3C(=CCc4cc(O)ccc43)C1CCC2=O (stereo unspecified)",
    "category": "inactive"
  },
  {
    "compound": "CSc1nc2nc3c(nc2c(=O)n1C)C(=O)c1ccccc1C3=O",
    "category": "active"
  },
  {
    "compound": "COc1ccc2c(c1)CC[C@@H]1[C@@H]2CC[C@]2(C)[C@@H](O)C(=O)C[C@@H]12",
    "category": "inactive"
  }
]
